I'd be grateful if you could share measured YAP1 (% UT) for these entries.
Test system: Yap1 mRNA
Assay: Antisense inhibition of human Yap1 in SNU-449 cells by modified oligonucleotides, single dose (Example 5, RTS36584)
Assay type: cell-based
Conditions: Table 49; Yap1 mRNA level relative to untreated control; modified oligonucleotides targeting SEQ ID NO.: 1 and 2
Strand notation (5' to 3'): a small letter for the sugar, then the base; units joined by * are phosphorothioate-linked, units joined directly phosphodiester-linked; [ ] holds rarer units or linkages, { } end groups; capitals alone tell only the bases. e = 2'-O-(2-methoxyethyl) (MOE); k = constrained ethyl (cEt); [5mC] = 5-methylcytosine; d = 2'-deoxy (DNA)
Give bare numbers, in % UT.

[
  {
    "Substance": "1198358 (kT*kT*kT*dA*dA*dA*dG*dT*dG*dT*dA*dT*kG*eT*k[5mC]*eA; antisense) [Compound 1198358]",
    "YAP1 (% UT)": 15
  },
  {
    "Substance": "1198306 (kA*kA*k[5mC]*dA*d[5mC]*dT*dG*dA*dG*dG*dT*dA*kT*eA*kA*e[5mC]; antisense) [Compound 1198306]",
    "YAP1 (% UT)": 64
  }
]

// moving on: another record for YAP1 (% UT)
// map 1198353 (kA*kG*kT*dG*dT*dA*dT*dG*dT*d[5mC]*dA*dG*kA*eA*kG*eA; antisense) [Compound 1198353] to recorded YAP1 (% UT) (system: Yap1 mRNA)
8

----------
I'd be grateful if you could share measured Yap1 mRNA, % UTC for these entries.
System: Yap1 mRNA
Assay: Dose-dependent inhibition of human Yap1 in A-431 cells (Example 8, 10,000 cells per well, RTS4814)
Type: cell-based
Settings: 31.3 nM; A-431 cells, 10,000 cells per well, free uptake, approximately 48 hours, RTS4814
Strand notation (5' to 3'): a small letter for the sugar, then the base; units joined by * are phosphorothioate-linked, units joined directly phosphodiester-linked; [ ] holds rarer units or linkages, { } end groups; capitals alone tell only the bases. k = constrained ethyl (cEt); [5mC] = 5-methylcytosine; d = 2'-deoxy (DNA)

[
  {
    "Substance": "1075757 (k[5mC]*kT*kT*dA*dA*dT*dA*d[5mC]*dA*dT*dT*dA*dT*kT*k[5mC]*k[5mC]; antisense) [compound 1075757]",
    "Yap1 mRNA, % UTC": "43 % UTC"
  },
  {
    "Substance": "1076399 (antisense kG*kA*kT*dA*dA*d[5mC]*dT*dT*dA*dG*dA*dG*dA*kT*kG*kT) [compound 1076399]",
    "Yap1 mRNA, % UTC": "60 % UTC"
  }
]

For each of the items listed, what is its Yap1 mRNA, % UTC?
1. 1075457 (antisense kA*kG*kT*dA*dA*dT*dA*dT*dG*dT*dA*d[5mC]*dA*kT*kG*kG) [compound 1075457]
2. 1076556 (kG*kT*kA*dT*dA*dG*dG*d[5mC]*dA*dG*dA*dA*dG*k[5mC]*kA*kA; antisense) [compound 1076556]
3. 1076416 (kA*k[5mC]*k[5mC]*dG*dA*dA*dA*dT*dG*dA*dT*dA*d[5mC]*kT*kG*kA; antisense) [compound 1076416]
4. 1076460 (kT*kA*kA*dT*dA*dT*dA*dG*d[5mC]*d[5mC]*d[5mC]*d[5mC]*dT*kT*k[5mC]*kA; antisense) [compound 1076460]

52 % UTC
72 % UTC
67 % UTC
79 % UTC

----------
System: Yap1 mRNA
Assay: Antisense inhibition of human Yap1 in SNU-449 cells by modified oligonucleotides, single dose (Example 5, RTS36584)
Assay type: cell-based
Details: Table 42 (separate experiment); SNU-449 cells, 10,000 cells per well, free uptake, 2,000 nM modified oligonucleotide, approximately 48 hours; RTS36584; normalized to RIBOGREEN; Yap1 mRNA relative to untreated control cells
Strand notation (5' to 3'): a small letter for the sugar, then the base; units joined by * are phosphorothioate-linked, units joined directly phosphodiester-linked; [ ] holds rarer units or linkages, { } end groups; capitals alone tell only the bases. e = 2'-O-(2-methoxyethyl) (MOE); k = constrained ethyl (cEt); [5mC] = 5-methylcytosine; d = 2'-deoxy (DNA)
I'd be grateful if you could share measured YAP1 (% UTC) for these entries.
Answers are plain numbers, in % UTC.

[
  {
    "Substance": "1198708 (kT*kA*dA*dG*dT*dA*dA*dG*dG*dT*dT*dT*k[5mC]*e[5mC]*k[5mC]*eA; antisense) [Compound 1198708]",
    "YAP1 (% UTC)": 34
  }
]

For each of the items listed, what is its YAP1 (% UTC)?
1. 1198699 (kA*kA*dA*dG*dT*dG*dT*dA*dT*dG*dT*d[5mC]*kA*eG*kA*eA; antisense) [Compound 1198699]
2. 1198682 (antisense k[5mC]*kT*d[5mC]*dT*dT*dA*dT*dA*dT*dG*dG*dT*kT*eT*kT*eG) [Compound 1198682]
3. 1198231 (kT*kT*dG*dG*dA*dA*dG*dA*dT*d[5mC]*dT*eG*eA*eA*kA*k[5mC]) [Compound 1198231]
4. 1198228 (kA*kA*dG*d[5mC]*dA*d[5mC]*dT*dT*dT*dT*dA*e[5mC]*eA*eT*kT*kA) [Compound 1198228]

[30, 25, 73, 54]

For each of the items listed, what is its YAP1 (% UTC)?
1. 1198698 (antisense kA*kA*dG*dT*dG*dT*dA*dT*dG*dT*d[5mC]*dA*kG*eA*kA*eG) [Compound 1198698]
2. 1198233 (k[5mC]*kT*dT*dT*dG*dG*dA*dA*dG*dA*dT*e[5mC]*eT*eG*kA*kA) [Compound 1198233]
3. 1198707 (kA*kA*dG*dT*dA*dA*dG*dG*dT*dT*dT*d[5mC]*k[5mC]*e[5mC]*kA*eG; antisense) [Compound 1198707]
4. 958499 (kA*kT*kT*dA*dG*dA*dG*dT*dA*dT*dG*dT*dG*kG*k[5mC]*kA) [Compound 958499]
5. 1074461 (kG*kA*kA*dA*dT*dT*dG*dT*d[5mC]*dT*d[5mC]*dA*dT*kG*k[5mC]*k[5mC]) [Compound 1074461]
6. 1198684 (antisense kA*kA*d[5mC]*dT*d[5mC]*dT*dT*dA*dT*dA*dT*dG*kG*eT*kT*eT) [Compound 1198684]

[12, 49, 31, 15, 11, 75]

For each of the items listed, what is its YAP1 (% UTC)?
1. 1198203 (kG*kG*dA*dA*dA*dT*dT*dG*dT*d[5mC]*dT*e[5mC]*eA*eT*kG*k[5mC]; antisense) [Compound 1198203]
2. 1198208 (kA*kG*dA*dG*dT*dA*dT*dG*dT*dG*dG*e[5mC]*eA*eA*kT*kA; antisense) [Compound 1198208]

1: 19; 2: 25

----------
Tested on: Yap1 mRNA
Assay: Antisense inhibition of human Yap1 in A-431 cells by cEt gapmers, single dose (Example 2, RTS4814)
Format: cell-based
Conditions: Table 23; Yap1 mRNA as percent of untreated control; 3-10-3 cEt gapmers; single dose
Strand notation (5' to 3'): a small letter for the sugar, then the base; units joined by * are phosphorothioate-linked, units joined directly phosphodiester-linked; [ ] holds rarer units or linkages, { } end groups; capitals alone tell only the bases. k = constrained ethyl (cEt); [5mC] = 5-methylcytosine; d = 2'-deoxy (DNA)
Measured metric: YAP1 (% UTC)
Give bare numbers, in % UTC.

[
  {
    "Substance": "1075817 (k[5mC]*k[5mC]*kT*dA*dA*dA*dG*dA*dA*dG*dT*d[5mC]*dT*kT*kG*kG; antisense) [Compound 1075817]",
    "Measured metric": "YAP1 (% UTC)",
    "Unit abbrev": "% UTC",
    "Experimental result": 100
  },
  {
    "Substance": "1074537 (antisense k[5mC]*kA*kG*dT*dA*dA*dT*dA*dG*d[5mC]*dT*d[5mC]*dT*kT*kT*k[5mC]) [Compound 1074537]",
    "Measured metric": "YAP1 (% UTC)",
    "Unit abbrev": "% UTC",
    "Experimental result": 3
  },
  {
    "Substance": "1075017 (antisense k[5mC]*kT*kT*dA*dA*dA*dG*dT*dG*dA*dT*dA*d[5mC]*kA*k[5mC]*k[5mC]) [Compound 1075017]",
    "Measured metric": "YAP1 (% UTC)",
    "Unit abbrev": "% UTC",
    "Experimental result": 19
  },
  {
    "Substance": "1075561 (kG*kT*kA*dA*dG*dT*dA*dA*dG*dG*dG*dA*dA*k[5mC]*k[5mC]*k[5mC]; antisense) [Compound 1075561]",
    "Measured metric": "YAP1 (% UTC)",
    "Unit abbrev": "% UTC",
    "Experimental result": 32
  }
]

For each of the items listed, what is its YAP1 (% UTC)?
1. 1075145 (antisense kT*k[5mC]*k[5mC]*d[5mC]*dA*dA*dA*dA*dG*dG*dA*dG*dT*kA*kG*k[5mC]) [Compound 1075145]
2. 1076169 (k[5mC]*kT*kA*d[5mC]*dT*dA*dT*dA*dT*d[5mC]*dT*dT*dT*kG*kG*kG; antisense) [Compound 1076169]
3. 1074665 (antisense kT*kT*kG*d[5mC]*dA*dT*dT*d[5mC]*dT*dA*dG*dG*dT*kA*kG*kA) [Compound 1074665]

1: 58; 2: 10; 3: 17
